Molecular target: Mannose-6-phosphate isomerase (Homo sapiens, UniProt P34949)
Sequence (P34949 whole entry): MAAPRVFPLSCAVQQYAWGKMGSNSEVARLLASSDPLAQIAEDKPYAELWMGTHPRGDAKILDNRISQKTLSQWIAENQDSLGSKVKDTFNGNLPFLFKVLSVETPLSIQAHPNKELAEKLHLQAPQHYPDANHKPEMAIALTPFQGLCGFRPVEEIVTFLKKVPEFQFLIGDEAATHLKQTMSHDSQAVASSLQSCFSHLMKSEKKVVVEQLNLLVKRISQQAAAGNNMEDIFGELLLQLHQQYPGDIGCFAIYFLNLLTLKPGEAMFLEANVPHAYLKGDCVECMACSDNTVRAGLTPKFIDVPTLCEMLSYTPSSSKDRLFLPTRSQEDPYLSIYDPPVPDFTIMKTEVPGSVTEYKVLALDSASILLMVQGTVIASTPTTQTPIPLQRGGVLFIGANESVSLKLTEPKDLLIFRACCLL
Experiment: MPI inhibition at elevated mannose 6-phosphate – biochemical, fluorescence intensity, high mannose 6-phosphate, primary screen (AID 1220)
Active and inactive are the calls of the source.
reported endpoint: IC50

| compound | test result |
| --- | --- |
| CCN(CC)C(=S)SC1=CCS(=O)(=O)C1 | 24.5 µM (active) |
| CC(C)(C)C1=Nn2c(nnc2-c2n[nH]c3c2CCC3)SC1 | > 50 µM (not active) |
| N#Cc1c2ccc(OCC(N)=O)cc2n2ccccc12 | > 50 µM (not active) |
| O=C1Nc2ccc([N+](=O)[O-])cc2C1=Nc1cccc(CO)c1 | 12.4 µM (active) |
| CN(C)/C=N/c1c(Br)cc(Br)c2nonc12 | > 50 µM (not active) |

====

Assay: luciferase reporter signal suppression in cells – H4 neuroglioma cells, luminescence, dose response (AID 1990)
Format: functional, cell-based
Active and inactive are the calls of the source.
Items are presented alongside their recorded EC50.

| compound | EC50 |
| --- | --- |
| O=C(NC1=NCCS1)C1COc2ccccc2O1 (stereo not given) | 3.37 µM (active) |
| Cc1ccc2c(c1)c(-c1ccccc1)nc1nnnn12 | 17.5 µM (active) |
| CCc1ccccc1Nc1nc2ccccc2n1CC | > 120 µM (not active) |
| CCOC(=O)c1ccc(NC(=O)c2cc3c(C)nn(-c4ccccc4Cl)c3s2)s1 | 15.3 µM (active) |
| CCOC(=O)C1CCN(C(=O)CCc2c(C)nc3cc(-c4ccccc4)nn3c2C)CC1 | 18.2 µM (active) |

====

Molecular target: Heat shock factor protein 1 (Mus musculus, UniProt P38532)
Sequence (P38532 whole entry): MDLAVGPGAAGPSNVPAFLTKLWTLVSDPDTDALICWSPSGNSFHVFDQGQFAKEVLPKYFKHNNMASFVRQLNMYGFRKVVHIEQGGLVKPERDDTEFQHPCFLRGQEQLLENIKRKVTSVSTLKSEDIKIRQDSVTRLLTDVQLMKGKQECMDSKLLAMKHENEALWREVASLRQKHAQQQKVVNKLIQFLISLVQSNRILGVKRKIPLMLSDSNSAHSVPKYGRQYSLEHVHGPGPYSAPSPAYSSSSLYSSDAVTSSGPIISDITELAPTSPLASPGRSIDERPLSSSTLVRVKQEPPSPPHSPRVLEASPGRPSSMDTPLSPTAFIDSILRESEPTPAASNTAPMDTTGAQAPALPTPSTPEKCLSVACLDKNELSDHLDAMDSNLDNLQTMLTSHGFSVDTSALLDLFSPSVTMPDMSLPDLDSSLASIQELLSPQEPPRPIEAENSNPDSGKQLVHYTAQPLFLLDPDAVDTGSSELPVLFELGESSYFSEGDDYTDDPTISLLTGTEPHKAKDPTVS
Assay: enhancement of HSF1-driven luciferase signal – cell-based, NIH3T3, luminescence, dose retest, confirmation (AID 435004);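 also: stress induced by proteasome inhibitor MG132 added 30 min after compound; luciferase reporter driven by HSF1 response element in NIH3T3 cells; actives raise luminescence as potentiators of the MG132 stress response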
Type: functional
The source made the active and inactive calls.
reported endpoint: EC50

| compound | reported endpoint | test result |
| --- | --- | --- |
| CN(c1cccc(NC(=O)CN(c2cccc(Cl)c2)S(=O)(=O)c2ccc(Cl)cc2)c1)S(C)(=O)=O | EC50 | > 260 µM (inactive) |
| CCOc1cc(/C=C\[N+](=O)[O-])ccc1OCC(=O)N1CCOCC1 | EC50 | 11 µM (active) |
| Cc1nonc1C1CCCN1Cc1c[nH]nc1-c1ccc(-c2ccccc2)cc1 (stereo unspecified) | EC50 | 35.2 µM (active) |
| COc1ccc(C(C(=O)NCC2CCCO2)N(C(=O)Cn2nnc3ccccc32)c2ccc(NC(C)=O)cc2)cc1OC (stereo unspecified) | EC50 | > 260 µM (inactive) |
| O=C(Cn1ncc(Cl)c(Cl)c1=O)N1CCN(S(=O)(=O)c2ccc3ccccc3c2)CC1 | EC50 | 3.7 µM (active) |
| Cc1ccc(O)c(CNc2nccs2)c1 | EC50 | 20.5 µM (active) |
| CCOC(=O)c1c(N2C(=O)C=CC2=O)sc(C)c1C | EC50 | 4.22 µM (active) |
| O=S(=O)(NC1c2cccc3cccc(c23)C1N1CCNCC1)c1ccc(Cl)cc1 (stereo unspecified) | EC50 | > 260 µM (inactive) |
| C=CCn1c(SCC(=O)Nc2cc(NC(C)=O)ccc2OC)nnc1-c1cccnc1 | EC50 | > 260 µM (inactive) |
| CC(C)c1ccc(/C=C/C(=O)n2nnc3ccccc32)cc1 | EC50 | 14.2 µM (active) |
| O=C/C=C/c1c(-c2ccccc2)cc2oc3ccccc3cc1-2 | EC50 | > 260 µM (inactive) |
| Clc1ncnc2scc(C3COc4ccccc4O3)c12 (stereo unspecified) | EC50 | 21.4 µM (active) |
| COC1(OC)C(/C=C/c2ccc(Cl)cc2)C(C#N)(C#N)C1(OC)OC (stereo unspecified) | EC50 | 33.6 µM (active) |
| CCc1nc(N2CCN(S(=O)(=O)c3ccc(Br)cc3)CC2)c2c(C)c(C)sc2n1 | EC50 | > 260 µM (inactive) |
| CCOC(=O)Cn1nnnc1C(C(C)C)N(Cc1cc2c(C)cc(C)cc2[nH]c1=O)C1CCCC1 (stereo unspecified) | EC50 | 36.9 µM (active) |
| COc1ccc(CNC(=O)CCC(=O)N2CC(C)Oc3ccccc32)cc1 (stereo unspecified) | EC50 | > 260 µM (inactive) |
